Overview of reported TGI across a group of compounds:
# Tested on: EKVX NSCLC
# runDescription: NCI tumour cell line growth inhibition, 48 h
Kindly provide the numeric value in µM only, without the unit symbol.

c1ccc(-c2c(-c3ccccc3)[n+](Cc3ccc4ccccc4c3)c(-c3cccc4ccccc34)n2Cc2ccc3ccccc3c2)cc1    1.43

// switching to the query compound
Task item: # query: TGI of entry CC(C)C1=C(O)C2=C(C(=O)C1=O)C1(C)CCCC(C)(C)C1CC2O (stereo not given)
Reply: 49.7

----------
Recorded TGI for the following molecules
# Test system: MDA-MB-435
# runDescription: NCI tumour cell line growth inhibition, 48 h
Numbers only; they are read as µM.

COc1cc(Br)cc2cc(C3=CSC4=NCCN34)c(=O)oc12    33.9

Now consider the entry below.
Task item: // lookup TGI for CC1CSC(=S)N1C(=O)N1C(=S)SCC1C (stereo not given)
Reply: 46.6

----------
Reported TGI values for the following compounds.
# Tested on: UACC-257 melanoma
# runDescription: NCI tumour cell line growth inhibition, 48 h

Example entries and their recorded answers appear below.
ClCCC[Si]12OCCN(CCO1)CCO2    > 100 µM
CC(C)CC(C(N)=O)C(=O)NC(Cc1ccccc1)NC(=O)CNC(=O)C(C)NC(=O)C(N)Cc1ccc(O)cc1 (stereo unspecified)    > 100 µM
Cc1ccc(NC(=O)OCC(COc2ccc(Cl)cc2)OC(=O)Nc2ccc(C)cc2)cc1 (stereo unspecified)    > 100 µM

Task item: GET /values?readout=TGI&system=UACC-257 melanoma&item= O=C(N=Nc1c(O)[nH]c2c(Cl)cc(Cl)cc12)c1ccccc1O
Reply: 33.2 µM

Task item: Please provide the recorded TGI for N#Cc1nn(C(N)=O)c(N)c1C#N , tested on UACC-257 melanoma.
Reply: > 100 µM

Task item: Can you look up TGI on UACC-257 melanoma for O=c1c2ccccc2nc2n1CCc1c-2[nH]c2ccc(Br)cc12 ?
Reply: > 100 µM

----------
# System: SF-295 CNS
# runDescription: NCI tumour cell line growth inhibition, 48 h; in the data active = GI50 below about 0.43 µM; inactive = the rest
Thanks in advance; please answer with one of these: true for active, false for inactive

The examples below pair each entry with its known result.
COC1=CC(c2ccc[nH]2)=N/C1=C\c1[nH]c(C)c(C(=O)CCCCC(=O)NCc2ccccc2)c1C    false
COc1ccc(/C=C/c2nnc(/C=C/c3ccc(OC)c(OC)c3)o2)cc1OC    false
Clc1ccc(CCC(Cn2ccnc2)Sc2c(Cl)cccc2Cl)cc1 (configuration not stated)    false
CCCC(c1nnnn1C1CCCCC1)N1CCN(C(=O)c2ccco2)CC1 (configuration not stated)    false
Cc1ccc(-c2c(C#N)[n+](=O)c3cc(Cl)c(Cl)cc3n2[O-])cc1    false
O=C1/C(=C/c2ccc(Cl)cc2)COc2ccc(O)cc21    false

Kindly consider the entry below.
Task item: Fill in: this test's call for CC(C)(C)c1ccc(C(=O)Nc2sc3c(c2C#N)CCC(=O)C3)cc1 is ___
Reply: false

----------
# reported TGI; entries follow
# System: MOLT-4 leukemia
# runDescription: NCI tumour cell line growth inhibition, 48 h

COc1ccc(=[O+]C)c2nssc1-2    > 100 µM
O=CNCCCN1CCN(CCCNC=O)CC1    > 100 µM
O=C(O)c1cc2ccccc2c(N=Nc2ccc(S(=O)(=O)O)cc2)c1O    > 100 µM
CCOC(=O)NC(Nc1ncn(C(NC(=O)OCC)(C(F)(F)F)C(F)(F)F)n1)(C(F)(F)F)C(F)(F)F    > 100 µM
COc1cc(/C=N/Nc2ncnc3[nH]ncc23)ccc1O    > 25 µM
CC(=O)OC1COC(N2CCc3ccccc32)C(OC(C)=O)C1OC(C)=O (stereo not given)    > 100 µM

Task item: For the compound shown here, O=C(O)C1[C@@H](C(=O)O)C1(Br)CBr (stereo not given in full) , give the reported TGI.
Reply: > 100 µM

Task item: Give the measured TGI of COc1cc(-c2n[nH]nc2-c2ccc3c(c2)OCCO3)cc(OC)c1OC .
Reply: 11.6 µM

Task item: What value of measured TGI is listed for CC(=O)OCC1OC(n2c(-c3ccc(C)cc3)cc(-c3ccco3)c(C#N)c2=S)C(OC(C)=O)C(OC(C)=O)C1OC(C)=O (stereo not given) ?
Reply: > 100 µM

Task item: Reported TGI for CCN1CCC(Oc2c(C#N)ncc3[nH]c4ncccc4c23)CC1 : what is it?
Reply: 21.2 µM

Task item: Bench note: what TGI did O=C(/C=C/c1cccc(Br)c1)c1ccc(Cl)cc1 show?
Reply: 77.8 µM

Task item: Could you share which TGI value was measured for Cc1ccccc1-n1c(=O)sc2c(=O)n(-c3ccccc3)c(=S)[nH]c21 ?
Reply: > 100 µM

Task item: Quick one: TGI for CC(=O)c1nc2ccccc2n1CCN1CCN(C)CC1 ?
Reply: > 100 µM

Task item: Which TGI is reported for this compound? Clc1ccc(CCC(Cn2ccnc2)Sc2c(Cl)cccc2Cl)cc1 (stereo not given)
Reply: 8.21 µM

Task item: Recorded TGI for O=C(NCCc1[nH]nc2c1C(=O)C=C(Nc1ccccc1)C2=O)OCc1ccccc1 , please?
Reply: > 100 µM

Reference source for all entries: PubChem BioAssay (NCI)
